So I've got pIC50 readings for Ribonuclease H1 (Homo sapiens), take a look.
Give bare numbers, as −log10 of the molar value.

Please review the entries below; each comes with its answer.
> print(dat)
                                        smi                   target.system  test.result
1   Cc1ccc(S(=O)(=O)N=C2C=CC(=O)C=C2)c(C)c1  Ribonuclease H1 (Homo sapiens)         5.51
2  CCOc1ccc(C(=O)Nc2ccc3c(c2)C(=O)c2ccccc2C3=O)cc1  Ribonuclease H1 (Homo sapiens)         5.96
3  Nc1ccc(N=Nc2ccc(-c3ccc(O)cc3)cc2)c2ccc(S(=O)(=O)O)cc12  Ribonuclease H1 (Homo sapiens)         5.32
4  CN(C)S(=O)(=O)c1ccc(Nc2ccc(O)c3c2C(=O)c2c([N+](=O)[O-])ccc(O)c2C3=O)cc1  Ribonuclease H1 (Homo sapiens)         6.10

Please look at the following compound next.
input: Please look at this compound and report its pIC50: `Oc1ccc2ccccc2c1C=NCc1c(O)ccc2ccccc12`
output: 5.10
